biological target: GST-tagged FAK (Homo sapiens, UniProt Q05397); construct: purchased Invitrogen PV3832; test: Biochemical assay for FAK activity, Assay 1: phosphorylation of peptide substrate with radio-labeled ATP; settings: 5 μM ATP, 30 min pre-incubation, read-out: Assay 1 FAK TRF PXC50 (converted)
Sequence (Q05397 whole entry): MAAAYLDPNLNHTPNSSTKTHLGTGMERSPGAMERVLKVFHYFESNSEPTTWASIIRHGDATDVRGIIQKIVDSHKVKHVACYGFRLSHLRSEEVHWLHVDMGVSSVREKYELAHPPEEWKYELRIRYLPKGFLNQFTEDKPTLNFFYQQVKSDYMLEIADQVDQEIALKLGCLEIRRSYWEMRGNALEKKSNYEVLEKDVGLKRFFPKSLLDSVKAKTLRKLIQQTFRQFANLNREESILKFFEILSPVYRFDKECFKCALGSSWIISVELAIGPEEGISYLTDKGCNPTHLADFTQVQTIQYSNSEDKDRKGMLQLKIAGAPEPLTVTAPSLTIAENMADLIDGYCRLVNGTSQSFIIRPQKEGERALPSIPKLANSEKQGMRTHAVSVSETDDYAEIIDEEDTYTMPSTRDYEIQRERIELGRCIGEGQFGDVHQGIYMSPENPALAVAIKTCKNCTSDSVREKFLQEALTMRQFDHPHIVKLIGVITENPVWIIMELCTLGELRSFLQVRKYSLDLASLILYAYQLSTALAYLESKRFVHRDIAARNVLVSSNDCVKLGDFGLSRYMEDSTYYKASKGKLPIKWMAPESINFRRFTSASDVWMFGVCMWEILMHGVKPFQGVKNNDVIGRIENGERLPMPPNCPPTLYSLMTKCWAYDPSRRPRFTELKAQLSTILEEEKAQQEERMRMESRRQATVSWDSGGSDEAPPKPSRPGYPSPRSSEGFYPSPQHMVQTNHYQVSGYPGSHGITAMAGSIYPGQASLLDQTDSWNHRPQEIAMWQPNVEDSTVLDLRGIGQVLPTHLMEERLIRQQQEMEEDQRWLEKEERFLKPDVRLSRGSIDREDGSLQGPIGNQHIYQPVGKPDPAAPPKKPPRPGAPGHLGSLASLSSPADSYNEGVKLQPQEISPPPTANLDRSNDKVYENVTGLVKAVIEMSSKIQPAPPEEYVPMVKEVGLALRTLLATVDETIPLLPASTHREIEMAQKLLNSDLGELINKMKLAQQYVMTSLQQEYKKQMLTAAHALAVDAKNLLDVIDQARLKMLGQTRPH
Test Readout: log10 of IC50 (log10 of the value in nM)

| Molecule | Assay Target | Numeric Value |
| --- | --- | --- |
| CNC(=O)c1cc(Cl)ccc1Nc1cc(Nc2cc(C)nn2C)ncc1Cl | GST-tagged FAK (Homo sapiens, UniProt Q05397) | 0.30 |
| CCNC(=O)c1ccccc1Nc1cc(Nc2cc(C)nn2C)ncc1Cl | GST-tagged FAK (Homo sapiens, UniProt Q05397) | 0.70 |
| CCn1nccc1Nc1cc(Nc2ccccc2C(=O)NC)c(C(F)(F)F)cn1 | GST-tagged FAK (Homo sapiens, UniProt Q05397) | -0.30 |
| CNC(=O)c1ccccc1Nc1cc(Nc2cn(C)nc2C)ncc1Cl | GST-tagged FAK (Homo sapiens, UniProt Q05397) | -0.40 |
| Cc1cc(Nc2cc(Nc3ccccc3C(=O)NOCCN(C)C)c(Cl)cn2)n(C)n1 | GST-tagged FAK (Homo sapiens, UniProt Q05397) | 2.40 |
| CNC(=O)c1ccccc1Nc1cc(Nc2cc(C)nn2-c2ccccc2)ncc1C(F)(F)F | GST-tagged FAK (Homo sapiens, UniProt Q05397) | -0.40 |
| CNC(=O)c1ccccc1Nc1cc(Nc2cc(C)nn2CCO)ncc1Cl | GST-tagged FAK (Homo sapiens, UniProt Q05397) | 0.10 |
| CNC(=O)c1ccccc1Nc1cc(Nc2cc(C)nn2C(C)C)ncc1C(F)(F)F | GST-tagged FAK (Homo sapiens, UniProt Q05397) | -0.40 |
| CNC(=O)c1ccccc1Nc1cc(Nc2cc(C)nn2CCO)ncc1C(F)(F)F | GST-tagged FAK (Homo sapiens, UniProt Q05397) | -0.30 |
| CNC(=O)c1ccccc1Nc1cc(Nc2cc(C)nn2CC(F)(F)F)ncc1Cl | GST-tagged FAK (Homo sapiens, UniProt Q05397) | 0.50 |
| CCn1nccc1Nc1cc(Nc2ccc(Cl)cc2C(=O)NC)c(Cl)cn1 | GST-tagged FAK (Homo sapiens, UniProt Q05397) | 0.40 |
| CNC(=O)c1ccccc1Nc1cc(Nc2cc(C)nn2C(C)C)ncc1Cl | GST-tagged FAK (Homo sapiens, UniProt Q05397) | 0.00 |
| CCNC(=O)c1ccccc1Nc1cc(Nc2cc(C)nn2CC)ncc1Cl | GST-tagged FAK (Homo sapiens, UniProt Q05397) | 1.10 |
| CCn1nccc1Nc1cc(Nc2ccc(N3CCN(CCO)CC3)cc2C(=O)NC)c(Cl)cn1 | GST-tagged FAK (Homo sapiens, UniProt Q05397) | 1.80 |
| CCn1nc(C(=O)O)cc1Nc1cc(Nc2ccccc2C(=O)NC)c(Cl)cn1 | GST-tagged FAK (Homo sapiens, UniProt Q05397) | 1.00 |
| CCn1nc(C(=O)NOC)cc1Nc1cc(Nc2ccccc2C(=O)NC)c(Cl)cn1 | GST-tagged FAK (Homo sapiens, UniProt Q05397) | 0.70 |
| CCn1nc(C)cc1Nc1cc(Nc2ccccc2C(=O)NOC)c(Cl)cn1 | GST-tagged FAK (Homo sapiens, UniProt Q05397) | -0.40 |
| CNC(=O)c1cccc(F)c1Nc1cc(Nc2cc(C)nn2C)ncc1Cl | GST-tagged FAK (Homo sapiens, UniProt Q05397) | -0.20 |
